# Procedure summary: qHTS of pediatric cancer cell lines to identify multiple opportunities for drug repurposing: Confirmatory screen for NB-EBc1 cells (AID 1347115);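 note: cells exposed to compound for 48 h before the viability read; nearly all actives have a fitted effect of over 45% in size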; note: potency is the fitted concentration of half-maximal effect
# Condition set: NB-EBc1 neuroblastoma cells, viability (cytotoxicity); series mostly up to 45.9 µM
Results filed as inconclusive are left out. Active and inactive are the calls of the source. Calls come from the whole dose curve; as a rule, active = well fitted cell-killing curve with a large enough effect; inconclusive = small, poorly fitted or top-dose-only effect, or effect the other way; inactive = no such curve, though single readings can be large or run the other way. Numbered stars: 1 amine (or outer) side, 2 acyl side, 3 side chain; on linkers, the order of the positions; unused ones are H or OH. Bridge positions count the residues as written; N and C are the ends. Square brackets hold non-standard residues; d marks the D form. Peptide text beside a SMILES is read from it. I, II: the chains in the order shown. Actinocin(9to1) = Cc1c2oc3c(C)ccc(C(=O)[*:1])c3nc-2c(C(=O)[*:2])c(N)c1=O; NMeV = CN[C@H](C(=O)O)C(C)C; Sar = CNCC(=O)O
Measured quantity: Potency

// known answers, use as guide
Compound | Potency
COc1cccc2c1C(=O)c1c(O)c3c(c(O)c1C2=O)C[C@@](O)(C(=O)CO)C[C@@H]3O[C@H]1C[C@H](N)[C@H](O)[C@H](C)O1 | 3.29 µM (active)
Oc1ccc(O)cc1 | 14.7 µM (active)
C[C@]12CCC(=O)C=C1CC[C@H]1[C@@H]3CC[C@](O)(C(=O)CO)[C@@]3(C)C[C@H](O)[C@@]12F | inactive
CCCC(=O)O[C@]1(C(=O)CO)CC[C@H]2[C@@H]3CCC4=CC(=O)CC[C@]4(C)[C@H]3[C@@H](O)C[C@@]21C | inactive
C=C1C[C@H]2[C@@H]3C=C(C)C4=CC(=O)CC[C@]4(C)[C@H]3CC[C@]2(C)[C@@]1(OC(C)=O)C(C)=O | inactive
CC(=O)OCC(=O)[C@@]1(O)[C@H](C)C[C@H]2[C@@H]3CCC4=CC(=O)C=C[C@]4(C)[C@@]3(F)[C@@H](O)C[C@@]21C | inactive
C[C@]12C=CC(=O)C=C1[C@@H](F)C[C@@H]1[C@@H]2[C@@H](O)C[C@@]2(C)[C@H]1CC[C@]2(O)C(=O)CO | inactive
CC(=O)Oc1ccc(C(c2ccc(OC(C)=O)cc2)c2ccccn2)cc1 | inactive
CCC(C(=O)OCCN(CC)CC)c1ccccc1 (stereo not drawn) | inactive
O=C(CCCN1CCC(O)(c2ccc(Br)cc2)CC1)c1ccc(F)cc1 | inactive

So, NC(=O)CC[C@@H]1NC(=O)[C@H](Cc2ccccc2)NC(=O)[C@H](Cc2ccc(O)cc2)NC(=O)CCSSC[C@@H](C(=O)N2CCC[C@H]2C(=O)N[C@@H](CCCN=C(N)N)C(=O)NCC(N)=O)NC(=O)[C@H](CC(N)=O)NC1=O ? Its Potency was inactive

So, C[C@@H]1CN(CCCn2c3ccccc3c3ccccc32)C[C@H](C)N1 ? Its Potency was 14.7 µM (active)

So, Cc1c2oc3c(C)ccc(C(=O)N[C@@H]4C(=O)N[C@H](C(C)C)C(=O)N5CCC[C@H]5C(=O)N(C)CC(=O)N(C)[C@@H](C(C)C)C(=O)O[C@@H]4C)c3nc-2c(C(=O)N[C@@H]2C(=O)N[C@H](C(C)C)C(=O)N3CCC[C@H]3C(=O)N(C)CC(=O)N(C)[C@@H](C(C)C)C(=O)O[C@@H]2C)c(N)c1=O (I: T[dV]P[Sar][NMeV] / II: T[dV]P[Sar][NMeV]; ester I:1-I:C, II:1-II:C; linker I:N-II:N via Actinocin(9to1)) ? Its Potency was inactive

====

# Procedure summary: qHTS of pediatric cancer cell lines to identify multiple opportunities for drug repurposing: Primary screen for U-2 OS cells (AID 1347096);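 note: plate controls were DMSO wells for no effect and bortezomib positive control wells for full effect; nearly all actives have a fitted effect of over 50% in size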
# Condition set: U-2 OS viability, CellTiter-Glo luminescence, 48 h; series mostly up to 46 µM
Records with an inconclusive call do not appear. Calls of active or inactive are those of the source. The call rests on the fitted dose curve; in most records, active means well fitted cell-killing curve with a large enough effect; inconclusive means small, poorly fitted or top-dose-only effect; inactive means flat fitted curve, though single readings scatter.
Give your call using only these classes: active, inactive

Molecule | Group
CNC(=O)CN(CCN(CCN(CC(=O)[O-])CC(=O)NC)CC(=O)[O-])CC(=O)[O-].O.[Gd+3] | inactive
Cc1c(C)n(CCN(C)C)c2ccc(C(=O)OCCN(C)C)cc12 | inactive
Nc1ccn([C@@H]2O[C@H](CO)[C@@H](O)C2(F)F)c(=O)n1 | inactive
O=C1[C@H]2CCCC[C@H]2C(=O)N1CCCCN1CCN(c2nsc3ccccc23)CC1 | inactive
OC[C@H]1O[C@H](O[C@]2(CCl)O[C@H](CCl)[C@@H](O)[C@@H]2O)[C@H](O)[C@@H](O)[C@H]1Cl | inactive
C[C@@H](CN(C)C)CN1c2ccccc2Sc2ccccc21 | inactive

Query: Give the logged outcome of this assay for the following molecule: CCN1CCCC1=O
Reply: inactive

Query: Give the logged outcome of this assay for the following molecule: C=C1C[C@H]2[C@@H]3C=C(C)C4=CC(=O)CC[C@]4(C)[C@H]3CC[C@]2(C)[C@@]1(OC(C)=O)C(C)=O
Reply: inactive

Query: Give the logged outcome of this assay for the following molecule: Cc1cc(O)c(C(C)C)cc1Cl
Reply: inactive

====

# Test system: CP335
# Procedure summary: qHTS profiling for inhibitors of Plasmodium falciparum proliferation (AID 504749); note: nearly all actives have a fitted effect of over 60% in size; note: potency is the fitted concentration of half-maximal effect
# Condition set: P. falciparum in erythrocytes, SYBR Green DNA, 72 h; series mostly up to 28.7 µM
Records with an inconclusive call do not appear. Activity calls are given as the source filed them. The call rests on the fitted dose curve; in most records, active means well fitted inhibition curve with a large enough effect; inconclusive means small, poorly fitted or top-dose-only effect; inactive means flat fitted curve, though single readings scatter.
Measured quantity: Potency

// known answers, use as guide
Compound | Measured quantity | Recorded measurement
O=C(N/N=C/c1ccccc1O)c1ccncc1 | Potency | 6.01 µM (active)
CCOC(=O)OC(C)OC1=C(C(=O)Nc2ccccn2)N(C)S(=O)(=O)c2ccccc21 (stereo unspecified) | Potency | inactive
COc1cccc(CCc2ccccc2OCC(CN(C)C)OC(=O)CCC(=O)O)c1 (stereo unspecified) | Potency | 3.79 µM (active)
CC(=O)N(O)CCCCCNC(=O)CCC(=O)N(O)CCCCCNC(=O)CCC(=O)N(O)CCCCCN | Potency | inactive
CN1C(CCl)Nc2cc(Cl)c(S(N)(=O)=O)cc2S1(=O)=O (stereo unspecified) | Potency | inactive

So, Cc1cc(O)c(C(C)C)cc1Cl ? Its Potency was inactive

So, COc1ccc(CN2CCN(C(c3ccc(F)cc3)c3ccc(F)cc3)CC2)c(OC)c1OC ? Its Potency was 6.01 µM (active)

So, NCCCC[C@H](N[C@@H](CCc1ccccc1)C(=O)O)C(=O)N1CCC[C@H]1C(=O)O ? Its Potency was inactive

So, Nc1ccc(C(=O)Nc2ccccc2N)cc1 ? Its Potency was inactive

So, CC1(C)CCC(NC(=O)[C@@H](N)CCC(=O)O)CC1 ? Its Potency was inactive

So, O=C(Nc1ccc(Cl)c(Cl)c1)C1CC1 ? Its Potency was inactive

====

# System: ATS95
# Procedure summary: qHTS profiling for inhibitors of Plasmodium falciparum proliferation (AID 504749); note: nearly all actives have a fitted effect of over 60% in size
# Condition set: P. falciparum in erythrocytes, SYBR Green DNA, 72 h; series mostly up to 28.7 µM
Records with an inconclusive call do not appear. The source made the active and inactive calls. Calls come from the whole dose curve; as a rule, active = well fitted inhibition curve with a large enough effect; inconclusive = small, poorly fitted or top-dose-only effect; inactive = flat fitted curve, though single readings scatter.
Give your call using only these classes: 1 = active, -1 = inactive

The examples below pair each entry with its known result.
Compound | Group
COc1cccc(CCc2ccccc2OCC(CN(C)C)OC(=O)CCC(=O)O)c1 (configuration not stated) | 1
CC/C(=C(/CC)c1ccc(O)cc1)c1ccc(O)cc1 | -1
O=C(O)c1cc2cc(Cc3cccnc3)ccc2o1 | -1
C[C@]12CC[C@@H]3c4ccc(O)cc4CC[C@H]3[C@@H]1CC[C@@H]2O | -1
Cc1c(C(N)=O)cc([N+](=O)[O-])cc1[N+](=O)[O-] | -1
O=C(O)CNC(=O)c1ccccc1 | -1

Query: Give the logged outcome of this assay for the following compound: Cc1cc(=O)n(-c2ccccc2)n1C
Reply: -1

Query: Give the logged outcome of this assay for the following compound: COc1cc2c(cc1OC)C(C(C(=O)N(CCc1ccc(OC)c(OC)c1OC)CCc1ccc(OC)c(OC)c1OC)c1ccccc1)=NCC2 (configuration not stated)
Reply: 1

Query: Give the logged outcome of this assay for the following compound: CCCCCCCCCCCCCCNCCO
Reply: -1

Query: Give the logged outcome of this assay for the following compound: COc1ccc(CCN2CCC(Nc3nc4ccccc4n3Cc3ccc(F)cc3)CC2)cc1
Reply: 1

Query: Give the logged outcome of this assay for the following compound: O=C(CCCN1CCC(O)(c2ccc(Br)cc2)CC1)c1ccc(F)cc1
Reply: 1

Query: Give the logged outcome of this assay for the following compound: COc1ccc(C2C(=O)c3ccccc3C2=O)cc1
Reply: -1

====

# Tested on: PAD
# Procedure summary: qHTS profiling for inhibitors of Plasmodium falciparum proliferation (AID 504749); note: nearly all actives have a fitted effect of over 60% in size; note: potency is the fitted concentration of half-maximal effect
# Condition set: P. falciparum in erythrocytes, SYBR Green DNA, 72 h; series mostly up to 28.7 µM
Inconclusive results are not listed. Activity calls are given as the source filed them. Calls come from the whole dose curve; as a rule, active = well fitted inhibition curve with a large enough effect; inconclusive = small, poorly fitted or top-dose-only effect; inactive = flat fitted curve, though single readings scatter.
Measured quantity: Potency

// known answers, use as guide
Compound | Potency
CC(Cc1cccc(C(F)(F)F)c1)NCCOC(=O)c1ccccc1 (stereo not given) | inactive
CC(=O)N(O)CCCCCNC(=O)CCC(=O)N(O)CCCCCNC(=O)CCC(=O)N(O)CCCCCN | inactive
COc1ccc(/C=C/C(=O)c2ccc(OC)cc2OC)cc1 | 10 µM (active)
CC1(C)CCC(NC(=O)[C@@H](N)CCC(=O)O)CC1 | inactive
NC(=O)C(=O)N/N=C/c1ccc([N+](=O)[O-])o1 | inactive
CCCCOc1ccc(C(=O)CCN2CCCCC2)cc1 | inactive
Cc1cc(N)c2cc(NC(=O)Nc3ccc4nc(C)cc(N)c4c3)ccc2n1 | 12.6 µM (active)
Nc1ccc(C(=O)O)cc1 | inactive
CCN(CCCc1ccccc1)CCCc1ccccc1 | inactive
C[C@]12CCC(=O)C=C1CC[C@H]1[C@@H]3CC[C@](O)(C(=O)CO)[C@@]3(C)C[C@H](O)[C@@]12F | inactive

So, CCN(CC)C(=O)N1CCN(C)CC1 ? Its Potency was inactive

So, c1ccc(-c2ccc(C(c3ccccc3)n3ccnc3)cc2)cc1 (stereo not given) ? Its Potency was 7.94 µM (active)

So, Cc1ncc(CSSCc2cnc(C)c(O)c2CO)c(CO)c1O ? Its Potency was inactive

So, CCCCCC=CCC=CCCCCCCCC(=O)OCC ? Its Potency was inactive

So, COc1cc2c(cc1OC)C(=O)C(CC1CCN(Cc3ccccc3)CC1)C2 (stereo not given) ? Its Potency was inactive

So, CCCCC(CC)CN=C(N)NC(N)=NCCCCCCN=C(N)NC(N)=NCC(CC)CCCC (stereo not given) ? Its Potency was 0.891 µM (active)
